measured-property: melting point

Below are worked cases with known answers.
Item: CN(C)CCCN(C)C1CCC2C3CCC4CCCCC4(C)C3C(O)CC21C (stereo unspecified) | melting point: 130 to 131 °C

Item: Cn1c2ccc(C=O)cc2c2sc3ccccc3c21 | melting point: 188 to 190 °C

Item: O=C(c1ccc(Br)cc1)c1cc(Br)c(C(=O)c2ccc(Br)cc2)cc1Br | melting point: 254 to 256 °C

Item: O=C1C2=C(CCCC2)C(=O)N1CCCCCCN1C(=O)C2=C(CCCC2)C1=O | melting point: 123 to 124 °C

Item: COC(=O)C1=C(C)NC(C)=C(C(=O)OCC2CCCO2)C1c1cccc(C#N)c1 (stereo unspecified) | melting point: 127 to 129 °C

Item: CCOC(=O)CNC(=O)CCCCCNC(=O)OC(C)(C)C | melting point: 76 to 77 °C

Item: CCCCCCN1CC[C@H](NC(=O)c2cc(Cl)c(N)c3c2OCC3)[C@H](O)C1 (relative stereo) | melting point: 130 °C

Item: Cc1ccc2cccc3c2c1N(Cc1ccccc1)C3=NCCCn1ccnc1 | melting point: 107 to 109 °C

Item: O=c1c2c(OCC3CS3)cc(OCC3CS3)cc2oc2ccc3ccccc3c12 (stereo unspecified) | melting point: 225 to 226 °C

Item: C=C(C)c1c(OC)cc(Cc2cnc(N)nc2N)cc1OC | melting point: 228 to 229 °C

Next, consider the following compound.
Item: O=C(Oc1ccc(F)cc1)c1cc(C(F)(F)F)cc(C(F)(F)F)c1 | melting point: 60 to 61 °C

Sourced from a melting point compilation (Tetko et al.; mined from patent text by program, amines drawn as free bases though some values may be those of a salt)
